Taken from PubChem BioAssay.

# procedure_details: inhibitors of TNFa-induced NFkB p65 translocation, primary screen, imaging, HUVEC, MLSMR starter and 10KST1 sets (AID 438);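 further: compound added about 3h40 before a 20 min TNFalpha stimulation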
# measurement_context: HUVEC TNFa-induced p65 nuclear translocation; measured here: nuclei count (cytotoxicity indicator), at 2.08 µM
experimental_endpoint: cell count
Write the value as a bare number.

Below, each entry is followed by its recorded cell count result.
{"molecule": "CCN(Cc1cc2cc(OC)ccc2[nH]c1=O)C(=O)c1ccncc1", "result": 458}
{"molecule": "CSCCC(N=CC1=C(O)CC(C)(C)CC1=O)C(=O)O (configuration not stated)", "result": 405}
{"molecule": "COc1cccc(-n2nc(C(=O)Nc3ccc4c(c3)OCO4)c3ccccc3c2=O)c1", "result": 741}
{"molecule": "CC(C)c1ccc(NC(=O)CCNS(=O)(=O)c2cccc3nonc23)cc1", "result": 669}
{"molecule": "Clc1ss/c(=N\\c2ccccn2)c1Cl", "result": 623}
{"molecule": "CCCCOC(=O)Cn1c(=O)oc2ccc(C)cc21", "result": 741}
{"molecule": "CCCCOc1ccc(-c2ncc(Cl)cn2)cc1", "result": 469}
{"molecule": "CCN1CCN(c2ncc(C(=O)N3CCN(c4ccccc4OC)CC3)c3ccccc23)CC1", "result": 315}

INPUT: Fill in cell count for record COP(C)(=O)c1c(C)nn(-c2ccccc2)c1C (configuration not stated)
OUTPUT: 558

INPUT: Give the value of cell count reported for the following: Cn1c(=O)n(CCN2CCOCC2)c(=O)c2c1nc1n2CCN1c1ccccc1
OUTPUT: 362

INPUT: Provide one value: measured cell count of COc1ccc(CN(C(=O)c2cccs2)c2nccs2)cc1OC
OUTPUT: 457

INPUT: Answer with reported cell count of Cc1ccccc1Nc1nc(N)nc(CSCc2c(C)noc2C)n1
OUTPUT: 347

---

# procedure_details: endothelial E-selectin expression blockers – imaging, HUVEC, immunofluorescence, MLSMR starter and 10KST1 sets, primary screen (AID 487);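 further: signal is fraction of cell area covered by stained E-selectin grains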
# measurement_context: HUVEC TNFalpha-induced E-selectin immunofluorescence imaging, at 2 µM; stronger effect = higher value
experimental_endpoint: inhibition (%)
Numeric only. Scale: %

Before answering, review these 6 worked examples.
{"compound": "CCn1c(SCC(=O)Nc2ccc(Cl)cc2)nnc1C1CC1", "units_text": "%", "inhibition": -54.5}
{"compound": "CCCCCOC(=O)C1=C(C)N(C)C(=O)NC1c1cc(Br)c(O)c(OC)c1 (stereo unspecified)", "units_text": "%", "inhibition": 25.8}
{"compound": "O=C(CSCc1cnn(-c2ccccc2)c1-n1cccc1)NCC1CCCO1 (stereo unspecified)", "units_text": "%", "inhibition": -1.9}
{"compound": "O=C(COC(=O)C1CCN(S(=O)(=O)c2cccs2)CC1)c1cc2ccccc2o1", "units_text": "%", "inhibition": -97.6}
{"compound": "CSc1c(C#N)c(N)c(C#N)c2c1COC(C)(C)C2", "units_text": "%", "inhibition": -34}
{"compound": "Cc1onc(-c2ccccc2Cl)c1C(=O)N1CCc2ccccc21", "units_text": "%", "inhibition": -43.1}

INPUT: For the compound O=C(NC1(C(=O)NC2CCCCC2)CCCCC1)c1ccc2c(c1)OCO2 , give its reported inhibition.
OUTPUT: -45.8

INPUT: Read off the recorded inhibition for CC(=O)c1ccccc1OCCn1nnc(-c2ccc(C)cc2)n1
OUTPUT: -24.2

INPUT: Assign inhibition to the following record: CC(C)Cc1nc(S(=O)(=O)c2ccc(Cl)cc2)c(N2CCOCC2)o1
OUTPUT: -14.6

INPUT: Dear colleague, please send me the reported inhibition for Cc1ccc(O)c(-c2cc3ccccc3[nH]2)c1 when you can.
OUTPUT: -37.9

INPUT: Indicate the recorded inhibition value for this compound: O=C(c1ccco1)N1CCN(C2=NS(=O)(=O)c3ccccc32)CC1
OUTPUT: -3
